Target System: human CB2 receptor (Homo sapiens, UniProt P34972)
Sequence (P34972 whole entry): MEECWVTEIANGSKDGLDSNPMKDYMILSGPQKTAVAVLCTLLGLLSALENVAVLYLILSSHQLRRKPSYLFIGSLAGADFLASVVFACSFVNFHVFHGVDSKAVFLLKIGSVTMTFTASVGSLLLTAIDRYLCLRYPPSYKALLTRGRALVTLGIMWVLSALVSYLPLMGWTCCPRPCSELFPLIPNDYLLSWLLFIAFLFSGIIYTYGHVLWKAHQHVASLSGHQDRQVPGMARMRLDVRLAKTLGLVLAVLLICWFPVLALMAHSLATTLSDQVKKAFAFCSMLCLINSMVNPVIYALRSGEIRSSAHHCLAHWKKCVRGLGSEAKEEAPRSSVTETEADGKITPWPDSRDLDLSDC
Assay Notes: FLIPR membrane potential assay
Format: cell-based
Experimental Conditions: maximum drug effect as percentage of maximally effective (1 µM) CP 55,940
Value Type: hCB2 Max ± SEM (% CP 55,940)

Below are worked cases with known answers.
Compound	Reported Measurement
CC(C)[C@H](NC(=O)c1nn(Cc2ccc(F)cc2)c2ccccc12)C(N)=O [compound 4]	98 ± 10 % CP 55,940
CC(C)[C@H](NC(=O)c1nn(CC2CCCCC2)c2ccccc12)C(N)=O [compound 3]	104 ± 11 % CP 55,940
CC(C)[C@H](NC(=O)c1nn(CCCCCF)c2ccccc12)C(N)=O [compound 6]	98 ± 8 % CP 55,940

-- ask Give the observed hCB2 Max ± SEM (% CP 55,940) of CCCCCn1nc(C(=O)N[C@H](C(N)=O)C(C)C)c2ccccc21 [compound 5] for human CB2 receptor (Homo sapiens, UniProt P34972).
-- reply 102 ± 9 % CP 55,940

====

Consider the following compounds and their measured CB1 selectivity readings.
Target System: human CB1 receptor (Homo sapiens)
Assay Notes: FLIPR membrane potential assay
Type: cell-based
Experimental Conditions: ratio of CB2 EC50 to CB1 EC50
Write the number on its own, no unit after it.

CC(C)[C@H](NC(=O)c1nn(CC2CCCCC2)c2ccccc12)C(N)=O 2.7
CCCCCn1nc2ccccc2c1C(=O)N[C@H](C(N)=O)C(C)C 1.0
CC(C)[C@H](NC(=O)c1nn(Cc2ccc(F)cc2)c2ccccc12)C(N)=O 3.2

-- ask Report CB1 selectivity for `CC(C)[C@H](NC(=O)c1c2ccccc2nn1CCCCCF)C(N)=O`
-- reply 1.5

-- ask Answer with the recorded CB1 selectivity of `CCCCCn1nc(C(=O)N[C@H](C(N)=O)C(C)C)c2ccccc21` only.
-- reply 1.5

-- ask Kindly indicate its recorded CB1 selectivity. Item: `CC(C)[C@H](NC(=O)c1nn(CCCCCF)c2ccccc12)C(N)=O`
-- reply 2.0

====

Measured EC50, listed per entry.
Target System: human CB2 receptor (Homo sapiens, UniProt P34972)
Assay Notes: FLIPR membrane potential assay
Type: cell-based
Experimental Conditions: hCB2 pEC50 ± SEM, AtT-20-CB2 cells, membrane potential
Report the value in nM with no unit label.

Molecule	Target System	Output Unit	EC50
CCCCCn1nc(C(=O)N[C@H](C(N)=O)C(C)C)c2ccccc21 [compound 5]	human CB2 receptor (Homo sapiens, UniProt P34972)	nM	9.77

-- ask Return reported EC50. Input molecule: CC(C)[C@H](NC(=O)c1nn(CC2CCCCC2)c2ccccc12)C(N)=O [compound 3]
-- reply 20.9

====

Target System: human CB1 receptor (Homo sapiens, UniProt P21554)
Sequence (P21554 whole entry): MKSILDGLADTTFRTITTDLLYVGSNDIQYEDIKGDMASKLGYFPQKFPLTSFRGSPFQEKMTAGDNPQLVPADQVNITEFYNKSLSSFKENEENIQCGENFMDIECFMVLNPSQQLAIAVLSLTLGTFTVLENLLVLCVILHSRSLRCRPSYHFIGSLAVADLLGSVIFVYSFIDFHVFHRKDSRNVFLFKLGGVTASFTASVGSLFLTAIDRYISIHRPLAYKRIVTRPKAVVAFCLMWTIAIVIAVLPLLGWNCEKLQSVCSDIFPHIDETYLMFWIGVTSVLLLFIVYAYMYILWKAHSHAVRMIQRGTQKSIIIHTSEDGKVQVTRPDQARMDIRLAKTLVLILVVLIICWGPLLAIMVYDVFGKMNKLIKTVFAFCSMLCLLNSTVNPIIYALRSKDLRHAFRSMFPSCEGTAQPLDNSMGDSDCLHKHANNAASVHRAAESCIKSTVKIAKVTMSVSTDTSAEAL
Assay Notes: FLIPR membrane potential assay
Assay type: cell-based
Experimental Conditions: hCB1 pEC50 ± SEM, AtT-20-CB1 cells, membrane potential
// values below are reported pEC50
The read-out pEC50 is expressed as -log10 of concentration in moles per litre.

Examples with their reported pEC50 follow.
CC(C)[C@H](NC(=O)c1c2ccccc2nn1CCCCCF)C(N)=O 5.72
CC(C)[C@H](NC(=O)c1nn(CCCCCF)c2ccccc12)C(N)=O 8.55

-- ask Identify measured pEC50 associated with `CC(C)[C@H](NC(=O)c1nn(Cc2ccc(F)cc2)c2ccccc12)C(N)=O`
-- reply 8.67

====

Target System: human CB1 receptor (Homo sapiens, UniProt P21554)
Assay Notes: FLIPR membrane potential assay
Format: cell-based
Experimental Conditions: hCB1 EC50, AtT-20-CB1 cells, membrane potential
Measured EC50, listed per entry.
Number in nM, nothing else.

Compound	Output Unit	EC50
CC(C)[C@H](NC(=O)c1nn(CC2CCCCC2)c2ccccc12)C(N)=O [compound 3]	nM	7.8
CCCCCn1nc2ccccc2c1C(=O)N[C@H](C(N)=O)C(C)C [compound 9]	nM	4080
CC(C)[C@H](NC(=O)c1c2ccccc2nn1CCCCCF)C(N)=O [compound 10]	nM	1930

With those in mind, consider the next compound.
-- ask Give me measured EC50, please, for this compound: CCCCCn1nc(C(=O)N[C@H](C(N)=O)C(C)C)c2ccccc21 [compound 5]
-- reply 6.5

====

Target System: human CB1 receptor (Homo sapiens, UniProt P21554)
Assay Notes: FLIPR membrane potential assay
Format: cell-based
Experimental Conditions: maximum drug effect as percentage of maximally effective (1 µM) CP 55,940
Value Type: hCB1 Max ± SEM (% CP 55,940)

Examples with answers:
CC(C)[C@H](NC(=O)c1nn(CCCCCF)c2ccccc12)C(N)=O 132 ± 9 % CP 55,940
CC(C)[C@H](NC(=O)c1nn(CC2CCCCC2)c2ccccc12)C(N)=O 142 ± 18 % CP 55,940
CC(C)[C@H](NC(=O)c1nn(Cc2ccc(F)cc2)c2ccccc12)C(N)=O 151 ± 14 % CP 55,940

-- ask Determine from records and report hCB1 Max ± SEM (% CP 55,940) for `CCCCCn1nc(C(=O)N[C@H](C(N)=O)C(C)C)c2ccccc21`
-- reply 142 ± 15 % CP 55,940
